# method_description: XTT cytotoxicity assay
# Format: cell-based
# condition_info: human, PBMCs (non-stimulated), PBMC
measured_parameter: CC90 at 3 days (µM)
The reply should be a number in µM, with the unit left off.

Data request: Give recorded CC90 at 3 days. O=c1[nH]c(=O)n(COCc2ccccc2)c2c1CCCCC2c1ccccc1 (stereo not shown) [BmPCP]
Data returned: 229

----------
# method_description: XTT cytotoxicity assay
# Type: cell-based
# condition_info: human, PBMCs (non-stimulated), PBMC
measured_parameter: CC50 at 3 days (µM)
The reply should be a number in µM, with the unit left off.

Data request: Give recorded CC50 at 3 days. O=c1[nH]c(=O)n(COCc2ccccc2)c2c1CCCCC2c1ccccc1 (stereo not shown)
Data returned: 114

----------
# System: TZM-bl cells
# method_description: XTT cytotoxicity assay
# Type: cell-based
measured_parameter: CC50
Note to self: number, then unit, no commentary.

Data request: Give measured CC50 for O=c1[nH]c(=O)n(COCc2ccccc2)c2c1CCCCC2c1ccccc1 (stereo not shown) [BmPCP] (TZM-bl cells).
Data returned: 90.3 µM

----------
# method_description: XTT cytotoxicity assay
# Type: cell-based
# condition_info: human, TZM-bl cells
measured_parameter: CC90 at 3 days (µM)
The reply should be a number in µM, with the unit left off.

Data request: Give recorded CC90 at 3 days. O=c1[nH]c(=O)n(COCc2ccccc2)c2c1CCCCC2c1ccccc1 (stereo not shown)
Data returned: 208

----------
# System: MT4 cells
# method_description: XTT cytotoxicity assay
# Type: cell-based
measured_parameter: CC50 (µM)
The reply should be a number in µM, with the unit left off.

Data request: Give recorded CC50. O=c1[nH]c(=O)n(COCc2ccccc2)c2c1CCCCC2c1ccccc1 (stereo not shown)
Data returned: 165

----------
// values below are reported pIC50
# Test system: HIV-1 SF33
# method_description: HIV-1 inhibition assay, TZM-bl cells, luciferase
# Format: cell-based
# condition_info: Human immunodeficiency virus 1
Hey, just a heads up that pIC50 is the negative log base 10 of the concentration in molar.

{"molecule": "O=c1[nH]c(=O)n(COCc2ccccc2)c2c1CCCCC2c1ccccc1 (centres unmarked)", "pIC50": 6.47}
{"molecule": "C=CCn1c2c(c(=O)[nH]c1=O)CCCCC2c1ccccc1 (centres unmarked)", "pIC50": 5.89}
{"molecule": "Cc1ccnc2c1NC(=O)c1cccnc1N2C1CC1 [NVP, nevirapine, reference compound]", "pIC50": 6.72}
{"molecule": "CCOCn1c2c(c(=O)[nH]c1=O)CCCCC2c1ccccc1 (centres unmarked)", "pIC50": 5.80}

Now look at this one.
Data request: Give measured pIC50 for O=c1[nH]c(=O)n(Cc2ccccc2)c2c1CCCCC2c1ccccc1 (centres unmarked) (HIV-1 SF33).
Data returned: 5.05

----------
// values below are reported IC50
# System: HIV-1 SF33
# method_description: HIV-1 inhibition assay, PBMCs, p24 ELISA
# Assay type: cell-based
# condition_info: Human immunodeficiency virus 1, PBMC
The reply should be a number in nM, with the unit left off.

{"compound": "Cc1ccnc2c1NC(=O)c1cccnc1N2C1CC1 [NVP, nevirapine, reference compound]", "IC50, nM": 690}

Now look at this one.
Data request: Give recorded IC50. O=c1[nH]c(=O)n(COCc2ccccc2)c2c1CCCCC2c1ccccc1 (centres unmarked) [BmPCP]
Data returned: 1720

----------
// values below are reported SI (Selectivity index = CC50/IC50)
# Test system: HIV-1 SF33
# method_description: HIV-1 inhibition assay, MT4 cells, p24 ELISA
# Assay type: cell-based

Data request: Give recorded SI (Selectivity index = CC50/IC50). O=c1[nH]c(=O)n(COCc2ccccc2)c2c1CCCCC2c1ccccc1 (stereo not shown)
Data returned: 84

Data request: Give recorded SI (Selectivity index = CC50/IC50). C=CCn1c2c(c(=O)[nH]c1=O)CCCCC2c1ccccc1 (stereo not shown)
Data returned: 2.17

Data request: Give recorded SI (Selectivity index = CC50/IC50). CCOCn1c2c(c(=O)[nH]c1=O)CCCCC2c1ccccc1 (stereo not shown)
Data returned: 3.9

Data request: Give recorded SI (Selectivity index = CC50/IC50). O=c1[nH]c(=O)n(Cc2ccccc2)c2c1CCCCC2c1ccccc1 (stereo not shown)
Data returned: 1.15

----------
# Tested on: HIV-1 AH968
# method_description: Primary HIV-1 isolate inhibition in PBMCs
# Assay type: cell-based
# condition_info: Human immunodeficiency virus 1, PBMC; primary isolate AH968, subtype B', R5, PBMCs
// values below are reported pIC50
Hey, just a heads up that pIC50 is the negative log base 10 of the concentration in molar.

{"molecule": "O=c1[nH]c(=O)n(COCc2ccccc2)c2c1CCCCC2c1ccccc1 (centres unmarked) [BmPCP]", "recorded_number": 6.36}

Now look at this one.
Data request: Give recorded pIC50. Cc1ccnc2c1NC(=O)c1cccnc1N2C1CC1 [NVP, nevirapine, reference compound]
Data returned: 7.24

----------
# method_description: XTT cytotoxicity assay
# Assay type: cell-based
# condition_info: human, TZM-bl cells
measured_parameter: CC50 at 3 days
Note to self: number, then unit, no commentary.

// below: answered compounds
{"compound": "C=CCn1c2c(c(=O)[nH]c1=O)CCCCC2c1ccccc1 (stereo not shown) [APCP]", "result": "50 µM"}
{"compound": "O=c1[nH]c(=O)n(Cc2ccccc2)c2c1CCCCC2c1ccccc1 (stereo not shown) [BPCP]", "result": "180 µM"}

Data request: Give recorded CC50 at 3 days. O=c1[nH]c(=O)n(COCc2ccccc2)c2c1CCCCC2c1ccccc1 (stereo not shown) [BmPCP]
Data returned: 129 µM

Data request: Give recorded CC50 at 3 days. CCOCn1c2c(c(=O)[nH]c1=O)CCCCC2c1ccccc1 (stereo not shown) [EPCP]
Data returned: 22 µM

----------
# assayed_system: HIV-1 reverse transcriptase (Human immunodeficiency virus type 1 group M subtype B, UniProt P04585)
measured_parameter: pIC50
Hey, just a heads up that pIC50 is the negative log base 10 of the concentration in molar.

Data request: Give recorded pIC50. O=c1[nH]c(=O)n(COCc2ccccc2)c2c1CCCCC2c1ccccc1 (stereo not shown)
Data returned: 5.82

----------
// values below are reported pIC50
# Test system: HIV-1 SF33
# method_description: HIV-1 inhibition assay, MT4 cells, p24 ELISA
# Type: cell-based
# condition_info: Human immunodeficiency virus 1
Hey, just a heads up that pIC50 is the negative log base 10 of the concentration in molar.

{"molecule": "O=c1[nH]c(=O)n(COCc2ccccc2)c2c1CCCCC2c1ccccc1 (centres unmarked)", "pIC50": 5.71}

Data request: Give recorded pIC50. CCOCn1c2c(c(=O)[nH]c1=O)CCCCC2c1ccccc1 (centres unmarked)
Data returned: 5.12

Data request: Give recorded pIC50. Cc1ccnc2c1NC(=O)c1cccnc1N2C1CC1 [NVP, nevirapine, reference compound]
Data returned: 6.19

Data request: Give recorded pIC50. C=CCn1c2c(c(=O)[nH]c1=O)CCCCC2c1ccccc1 (centres unmarked)
Data returned: 4.54

Data request: Give recorded pIC50. O=c1[nH]c(=O)n(Cc2ccccc2)c2c1CCCCC2c1ccccc1 (centres unmarked)
Data returned: 3.94

----------
# method_description: XTT cytotoxicity assay
# Type: cell-based
# condition_info: human, MT4 cells
# Method: XTT assay was used to test the cytotoxicity of BmPCP on MT4 cells, human PBMCs (non-stimulated) and TZM-bl cells. An XTT assay, as previously described, was used for assessing the cytotoxicity of BmPCP to the cells tested for anti-HIV-1 activity. […] After incubation at 37°C, for 4 h to allow color development of the XTT formazan product, the absorbance of each well was then read at 450 nm in a Victor2 1420 Multilabel Counter (Wallace-PerkinElmer Life and Analytical Sciences Inc., Boston, MA). […]
measured_parameter: CC50 at 3 days (µM)
The reply should be a number in µM, with the unit left off.

// below: answered compounds
{"compound": "CCOCn1c2c(c(=O)[nH]c1=O)CCCCC2c1ccccc1 (stereo not shown) [EPCP]", "CC50 at 3 days, µM": 29.3}
{"compound": "O=c1[nH]c(=O)n(Cc2ccccc2)c2c1CCCCC2c1ccccc1 (stereo not shown) [BPCP]", "CC50 at 3 days, µM": 132}
{"compound": "C=CCn1c2c(c(=O)[nH]c1=O)CCCCC2c1ccccc1 (stereo not shown) [APCP]", "CC50 at 3 days, µM": 62}

Now look at this one.
Data request: Give recorded CC50 at 3 days. O=c1[nH]c(=O)n(COCc2ccccc2)c2c1CCCCC2c1ccccc1 (stereo not shown) [BmPCP]
Data returned: 90.3
